Provide the recorded melting point for the entries that follow.

The cases that follow already have their melting point on record.
Molecule	melting point
Nc1ccc(S(=O)c2ccc(Sc3ccc(Cl)c([N+](=O)[O-])c3)cc2)cc1[N+](=O)[O-] (stereo not given)	170 to 172 °C
Cc1ccc(CC(CNC(=O)C(C)c2ccc(NS(C)(=O)=O)c(Cl)c2)COC(=O)C(C)(C)C)cc1C (stereo not given)	127 to 129 °C
O=C1c2ccccc2-n2cnc(Cl)c2[C@@H]2CCN12	210 to 214 °C
CCC1(c2ccccc2)OC(C(=O)O)Oc2ccc(Cl)cc21 (stereo not given)	85 °C
CCOC(=O)c1cn(C2CC2)c2c(C#N)c(F)c(F)cc2c1=O	209 to 211 °C

Go through the items and report each one's melting point.
1. CN1C(=O)C(C(=O)Nc2ccccc2)c2cc3ccccc3cc2S1(=O)=O (stereo not given)
2. CN(C)c1ccc(S(=O)(=O)N2CCCC2=O)cc1

Result:
1: 188 to 190 °C; 2: 202 to 204 °C

Go through the items and report each one's melting point.
1. Cc1ccc(Nc2nc(=O)cc(N)n2-c2ccccc2)cc1
2. Cc1cccc(N2Cc3nc(CO)nn3-c3ccccc32)c1C
3. CN1C2CCC1CN(c1ccc(-c3ccccc3)cn1)C2

Result:
1. 207 to 210 °C
2. 186 to 194 °C
3. 110 °C
